Where do the numbers come from? From ChEMBL document CHEMBL1146741.

target: 5-hydroxytryptamine receptor 2B (Homo sapiens)
pKi: −log10 of the molar value.

{"smiles-representation": "c1cc2c3c(c1)c1c(n3CCNC2)CCCCCC1", "pKi": "< 5.30"}
